Provenance of the data: patent US20150119341A1

Biological target: recombinant human melanocortin-1 receptor (hMCR-1a) in membrane homogenates of HEK-293 cells (human) (UniProt Q01726)
Sequence (Q01726 whole entry): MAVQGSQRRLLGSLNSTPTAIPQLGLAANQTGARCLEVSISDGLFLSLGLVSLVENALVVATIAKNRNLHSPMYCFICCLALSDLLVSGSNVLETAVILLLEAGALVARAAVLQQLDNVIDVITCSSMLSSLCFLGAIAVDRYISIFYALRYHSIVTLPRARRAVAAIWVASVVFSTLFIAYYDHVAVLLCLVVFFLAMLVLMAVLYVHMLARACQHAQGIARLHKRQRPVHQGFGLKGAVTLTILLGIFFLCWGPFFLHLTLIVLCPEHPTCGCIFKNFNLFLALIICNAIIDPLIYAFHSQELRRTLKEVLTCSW
Test: competitive inhibition of [I125]-NDP-alpha-MSH, hMCR-1 HEK-293 membranes
[ ]: non-standard residue; d: D form. Nle = CCCC[C@H](N)C(=O)O; Orn = NCCC[C@H](N)C(=O)O; Sar = CNCC(=O)O
measureName: Ki (nM)
Give just the numeric value; nM need not be written.

The examples below pair each entry with its known result.
Ac-[Nle]AH[dF]RP[dW]-NH2 (SMILES CCCC[C@H](NC(C)=O)C(=O)N[C@@H](C)C(=O)N[C@@H](Cc1c[nH]cn1)C(=O)N[C@H](Cc1ccccc1)C(=O)N[C@@H](CCCNC(=N)N)C(=O)N1CCC[C@H]1C(=O)N[C@H](Cc1c[nH]c2ccccc12)C(N)=O) [Ac-Nle-Ala-His-D-Phe-Arg-Pro-D-Trp-NH2] | 2
Ac-[Nle]A[Orn][dF]RAW-NH2 (SMILES CCCC[C@H](NC(C)=O)C(=O)N[C@@H](C)C(=O)N[C@@H](CCCN)C(=O)N[C@H](Cc1ccccc1)C(=O)N[C@@H](CCCNC(=N)N)C(=O)N[C@@H](C)C(=O)N[C@@H](Cc1c[nH]c2ccccc12)C(N)=O) [Ac-Nle-Ala-Orn-D-Phe-Arg-Ala-Trp-NH2] | 0.3

Query :: Quick check: Ki of Ac-[Nle]AH[dF]R[Sar]W-NH2 (SMILES CCCC[C@H](NC(C)=O)C(=O)N[C@@H](C)C(=O)N[C@@H](Cc1c[nH]cn1)C(=O)N[C@H](Cc1ccccc1)C(=O)N[C@@H](CCCNC(=N)N)C(=O)N(C)CC(=O)N[C@@H](Cc1c[nH]c2ccccc12)C(N)=O) [Ac-Nle-Ala-His-D-Phe-Arg-Sar-Trp-NH2] ?
Result :: 2
